- system_under_test: YAP-WW1 (first WW domain of human YAP, residues 165–209) (Homo sapiens)
- Construct: residues 165–209 for the first WW domain of human YAP (YAP-WW1); poly-histidine (N, cleaved yes); GST (N, cleaved yes); made in house; host or cells: E. coli BL21 (DE3)
- Sequence (P46937 165-209): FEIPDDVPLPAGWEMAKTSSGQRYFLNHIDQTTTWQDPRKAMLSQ
- assay_info: Isothermal titration calorimetry of peptide ligands with isolated YAP-WW1
- Format: binding
- applied_conditions: ITC, 25°C, 40 mM sodium phosphate pH 7.0 (10 mM β-mercaptoethanol for LATS2); one set of identical sites model; at least two experiments; variability about 10%
endpoint_name: Kd (µM)
Give bare numbers, in µM.

Please review the entries below; each comes with its answer.
- substance: "Ac-YQGPPPPYPKHL-NH2 [LATS1-b]"
  unit_info: "µM"
  Kd: 3.7
- substance: "Ac-EGLWPPPYRPRR-NH2 [PTCH1-b]"
  unit_info: "µM"
  Kd: 13.2

Kindly review the next substance as well.
Data request: I'm curious: which Kd was measured for Ac-RRCPPPPYPKHL-NH2 [LATS2] tested on YAP-WW1 (first WW domain of human YAP, residues 165–209) (Homo sapiens)?
Data returned: 7.1

----------
- system_under_test: YAP-WW2 (second WW domain of human YAP, residues 228–271) (Homo sapiens)
- Construct: residues 228–271 for the second WW domain (YAP-WW2); poly-histidine (N, cleaved yes); GST (N, cleaved yes); made in house; host or cells: E. coli BL21 (DE3)
- Sequence (P46937 228-271): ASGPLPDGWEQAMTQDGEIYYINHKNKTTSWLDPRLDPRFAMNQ
- assay_info: Isothermal titration calorimetry of peptide ligands with isolated YAP-WW2
- Format: binding
- applied_conditions: ITC, 25°C, 40 mM sodium phosphate pH 7.0 (10 mM β-mercaptoethanol for LATS2); one set of identical sites model; at least two experiments; variability about 10%; n.b. = no binding detected; read-out: Kd
Give pKd for every item shown.
Give bare numbers, as −log10 of the molar value.

- substance: "Ac-RRCPPPPYPKHL-NH2 [LATS2]"
  system_under_test: "YAP-WW2 (second WW domain of human YAP, residues 228–271) (Homo sapiens)"
  pKd: 5.09

Attention now shifts to the item below.
Data request: Endpoint output: pKd of Ac-YQGPPPPYPKHL-NH2 [LATS1-b] . Value?
Data returned: 4.47

----------
- system_under_test: YAP-WW1-WW2 tandem construct (human YAP residues 165–271) (Homo sapiens, UniProt P46937)
- Construct: residues 165–271 for tandem construct (YAP-WW1-WW2); poly-histidine (N, cleaved yes); GST (N, cleaved yes); made in house; host or cells: E. coli BL21 (DE3)
- Sequence (P46937 165-271): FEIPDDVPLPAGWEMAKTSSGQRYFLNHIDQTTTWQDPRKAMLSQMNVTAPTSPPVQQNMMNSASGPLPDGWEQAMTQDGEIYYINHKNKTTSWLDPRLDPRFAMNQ
- assay_info: Isothermal titration calorimetry of peptide ligands with the YAP-WW1-WW2 tandem
- Format: binding
- applied_conditions: ITC, 25°C, pH 7.0, binding model for one set of sites
For each entry below, report its Kd value.
One number for each entry, in µM.

- substance: "Ac-EGLWPPPYRPRR-NH2 [PTCH1-b]"
  value: 16.9

Data request: # input substance: Ac-RRCPPPPYPKHL-NH2 [LATS2] ; wanted: its Kd
Data returned: 9.2

----------
- system_under_test: YAP-WW1-WW2 tandem construct (human YAP residues 165–271) (Homo sapiens, UniProt P46937)
- Construct: residues 165–271 for tandem construct (YAP-WW1-WW2); poly-histidine (N, cleaved yes); GST (N, cleaved yes); made in house; host or cells: E. coli BL21 (DE3)
- assay_info: Isothermal titration calorimetry of peptide ligands with the YAP-WW1-WW2 tandem
- Format: binding
- applied_conditions: ITC, 25°C, pH 7.0, model of two different sets of sites, n fixed to 1 each, second set of sites (second line)
endpoint_name: Kd (µM)
One number for each entry, in µM.

Data request: I'd like to know its Kd. The substance in question is Ac-YQGPPPPYPKHL-NH2 [LATS1-b]
Data returned: 31.9
